test system: NCI-H187; assay: Cytotoxicity against human NCI-H187 cells by SRB assay; format: functional, cell-based; conditions: Homo sapiens, NCI-H187; read-out: IC50
Measured Attribute: pIC50
# pIC50 is unitless: minus log10 of the molar concentration; print number only

Query: Recall the reported pIC50 of CCC(C)CC(C)/C=C(C)/C=C/C(=O)C1=C2C3=COC([C@H]4C(=O)C[C@H](O)C[C@@H]4C)=CC3=CC(=O)[C@@]2(C)OC1=O (some centres undefined) on NCI-H187 and write it down.
Result: 4.74

Query: Recall the reported pIC50 of CCC(C)CC(C)/C=C(C)/C=C/C(=O)[C@H]1C(=O)O[C@@]2(C)C(=O)C=C3C=C([C@H]4C(=O)C[C@H](O)C[C@@H]4C)OC=C3[C@@H]12 (some centres undefined) on NCI-H187 and write it down.
Result: 5.51

Query: Recall the reported pIC50 of "COc1cccc2c1C(=O)c1c(O)c3c(c(O)c1C2=O)C[C@@](O)(C(=O)CO)C[C@@H]3O[C@H]1C[C@H](N)[C@H](O)[C@H](C)O1" on NCI-H187 and write it down.
Result: 6.96

Query: Recall the reported pIC50 of "Cc1c2ccncc2c(C)c2c1[nH]c1ccccc12" on NCI-H187 and write it down.
Result: 5.74
